subject-of-test: Histone acetyltransferase KAT2B (Homo sapiens)
readout: pKd
The meaning of pKd here: minus log10 of the concentration in molar units.

I am curious: what pKd value has been reported for CNC(=O)c1cc(OCC(=O)Nc2ccccc2)ccc1OC1CCOCC1 ?
5.17

====

Record form. Attribute: ΔTm. Fill in for each entry.
Give the value, in units of °C, as a plain number.

Missing value: ΔTm, Histone acetyltransferase KAT2B (Homo sapiens, UniProt Q92831), entry NC(=O)c1ccc2[nH]ccc2c1 . Fill in?
2

Lab note: need ΔTm for COc1cccc2onc(N)c12 on Histone acetyltransferase KAT2B (Homo sapiens, UniProt Q92831), anyone have it?
0.8

Give ΔTm (Histone acetyltransferase KAT2B (Homo sapiens, UniProt Q92831)) of the following molecule: NC1CCN(C(=O)C2CC2)CC1
1

Give ΔTm (Histone acetyltransferase KAT2B (Homo sapiens, UniProt Q92831)) of the following molecule: COC(=O)c1ccc(N2CCOCC2)nc1
0.7

Hi! What's the reported ΔTm for CC(=O)Nc1ccc2c(C)cc(=O)n(C)c2c1 on Histone acetyltransferase KAT2B (Homo sapiens, UniProt Q92831)?
2.6

Write down the reported ΔTm of Oc1ccccc1-c1ccno1 , test system: Histone acetyltransferase KAT2B (Homo sapiens, UniProt Q92831).
1.3

For the record NCc1ccc(-c2csnn2)cc1 , what value of ΔTm is listed for Histone acetyltransferase KAT2B (Homo sapiens, UniProt Q92831)?
1

Form field: ΔTm recorded for Cc1c(N)c(=O)n(-c2ccccc2)n1C with Histone acetyltransferase KAT2B (Homo sapiens, UniProt Q92831) (enter value)
0.6

API: value(readout=ΔTm, system=Histone acetyltransferase KAT2B (Homo sapiens, UniProt Q92831)) for record Cn1c(=O)ccc2ccccc21
2

Enter reported ΔTm observed with Histone acetyltransferase KAT2B (Homo sapiens, UniProt Q92831) for NC(=O)c1cccc2c1OCCO2
0.8

Lab note: need ΔTm with Histone acetyltransferase KAT2B (Homo sapiens, UniProt Q92831) for entry Cc1nn(CCO)c2c1C(=O)CCC2 , please look it up.
0.9

Entry CN1Cc2ccccc2C1=O , system Histone acetyltransferase KAT2B (Homo sapiens, UniProt Q92831): what ΔTm was measured?
1.5

From: ChEMBL document CHEMBL3774375
